Values compiled from the supplement of paper PMC13380429.

# Test system: Vero E6
# assay explanation: cell viability relative to DMSO; higher = less toxic
# details: 72 h; 1 nM
For each record, write down the corresponding cell viability.
One number for each entry, in %.

Here is how some compounds turned out for cell viability.
{"compound": "CCCCCCCCCCCC1=C(O)C(=O)C=C(O)C1=O", "cell viability [%]": 92.1}
{"compound": "O=C(NC(=O)c1c(F)cccc1Cl)NC1c2ccccc2-c2ccccc21", "cell viability [%]": 100}
{"compound": "CC(C)(C)c1ccc(S(=O)(=O)/C=C/C#N)cc1", "cell viability [%]": 92.7}
{"compound": "CC(C)(C)c1ccc(S(=O)(=O)NCc2ccc(C(=O)Nc3cccnc3)cc2)cc1", "cell viability [%]": 103}
{"compound": "O=C(Nc1cc2cc[nH]c2cn1)c1ccccc1", "cell viability [%]": 97.1}
{"compound": "CN1CCCC(CN2c3ccccc3Sc3ccccc32)C1 (stereo not drawn)", "cell viability [%]": 101}
{"compound": "C[n+]1c2cc(N)ccc2cc2ccc(N)cc21.Nc1ccc2cc3ccc(N)cc3nc2c1", "cell viability [%]": 97}
{"compound": "COc1ccc(Cn2ccc3ccc(C(=O)NO)cc32)cc1", "cell viability [%]": 96.7}

Field: cell viability. Fill in for each record below.
1. N#C/C(=C\c1ccc(O)c(O)c1)C(N)=O
2. CN(Cc1cccc(-c2ccccc2)c1)C(=O)Oc1ccc(-c2ccc(C(N)=O)cc2)cc1
3. CC(C)OC(=O)OCOP(=O)(CO[C@H](C)Cn1cnc2c(N)ncnc21)OCOC(=O)OC(C)C
4. COc1ccc2nc3[nH]nc(C)c3c(NCCOCCO)c2c1
5. CC(Cc1cccc(C(F)(F)F)c1)NCCOC(=O)c1ccccc1 (stereo not drawn)
6. C[C@@H](N[C@H]1CCCC[C@@H]1NC(=O)c1ccc(Cl)cc1)c1cccc2ccccc12
7. NC(=O)c1cccnc1 [nicotinamide]
8. COc1ccnc(C[S+]([O-])c2nc3cc(OC(F)F)ccc3[nH]2)c1OC (stereo not drawn)

[94, 101, 102, 106, 101, 103, 107, 95.4]

Field: cell viability. Fill in for each record below.
1. Cc1cc(C(=O)O)sc1C(N)C(=O)O (stereo not drawn)
2. C[C@@H]1CN([C@H]2CC[C@](C#N)(c3ccc(F)cc3)CC2)CC[C@]1(C(=O)O)c1ccccc1

1. 92.6
2. 102

Field: cell viability. Fill in for each record below.
1. Cc1oc2nc3c(c(NC(=O)CN4CCCC4=O)c2c1C)CCCC3
2. CCOC(=O)Nc1ccc2c(c1)N(C(=O)CN(CC)CC)c1ccccc1CC2
3. Cc1cc(CCCOc2c(C)cc(-c3noc(C(F)(F)F)n3)cc2C)on1
4. COc1cccc(-c2ccc(NC(=O)C3=C(C(=O)O)CCC3)c(F)c2)c1
5. CCCCOc1ccc(-c2cncc(C(=O)NCc3cccnc3N3CCOCC3)c2)cc1Cl
6. CC(=O)N1CCN(CCOc2ccc(C3CCN(C4=Nn5c(nnc5C(F)(F)F)CC4)CC3)cc2)CC1
7. Cc1cnc(Nc2ccc(N3CCN(C)CC3)cc2)nc1Nc1cccc(S(=O)(=O)NC(C)(C)C)c1

93.2
95.2
94.2
90.1
102
104
93

Field: cell viability. Fill in for each record below.
1. CNC(=O)[C@@H](Cc1ccccc1)N(C)C(=O)[C@@H](Cc1ccc2ccccc2c1)N(C)C(=O)/C=C/CC(C)(C)N
2. CC(=O)c1cc([N+](=O)[O-])c(Sc2cccc(Cl)c2Cl)s1
3. CCOC(=O)c1c(C)n(C)c2ccc(O)cc12 [mecarbinate]
4. CC1(C)CC[C@]2(C(=O)O)CC[C@]3(C)C(=CC[C@@H]4[C@@]5(C)CC[C@H](O)C(C)(C)[C@@H]5CC[C@]43C)[C@@H]2C1

1. 95.8
2. 99.4
3. 99.7
4. 96.3
